TARGET: Trypsin (type 1× from porcine pancreas) (Sus scrofa, UniProt P00761)
Construct: Trypsin (5 ug/ml; type 1× from porcine pancreas); purchased Sigma, St. Louis Mo; host or cells: porcine pancreas
Sequence (P00761 9-231): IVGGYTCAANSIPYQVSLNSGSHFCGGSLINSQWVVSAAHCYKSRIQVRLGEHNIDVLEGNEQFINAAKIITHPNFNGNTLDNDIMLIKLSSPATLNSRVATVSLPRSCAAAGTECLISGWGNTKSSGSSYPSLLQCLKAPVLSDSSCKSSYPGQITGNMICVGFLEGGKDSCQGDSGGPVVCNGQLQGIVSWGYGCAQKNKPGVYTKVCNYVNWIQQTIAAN
ASSAY PROCEDURE: Trypsin Assay
Assay type: biochemical
TEST SETTINGS: inhibitor at 100 νM
Each entry belongs to exactly one class, chosen by where its % Inhibition Trpysin II (100 νM) falls: bin 0 = under 3%, bin 1 = from 3% up to 6%, bin 2 = 6% and over

A selection of reference data follows.
{"columns": ["COMPOUND", "ASSIGNED CATEGORY"],
 "data": [
  ["O=C(Cn1c(-c2cccc(Cl)c2)c(Cl)nc(NCc2ccccc2)c1=O)NCCc1cccnc1 [Example E-0086]", "bin 2"],
  ["O=C(Cn1c(-c2cccc(Cl)c2)c(Cl)nc(NCCc2ccccc2)c1=O)NCCc1cccnc1 [Example E-0077]", "bin 2"],
  ["O=C(Cn1c(-c2ccccc2)c(Cl)nc(NCc2ccncc2)c1=O)NCCc1ccncc1 [Example E-0016]", "bin 1"]
]}

INPUT: Hey, which category is O=C(Cn1c(Cc2ccccc2)c(Cl)nc(NCc2ccccc2)c1=O)NCCc1ccncc1 [Example E-0057] in, do you know?
OUTPUT: bin 0

INPUT: Hey, which category is COc1ccc(-c2c(Cl)nc(NCCc3cccnc3)c(=O)n2CC(=O)NCCc2ccncc2)cc1 [Example E-0037] in, do you know?
OUTPUT: bin 0

INPUT: Hey, which category is Cc1c(Cl)nc(NCCc2ccc(Cl)cc2)c(=O)n1CC(=O)NCCc1ccncc1 [Example E-0004] in, do you know?
OUTPUT: bin 0

INPUT: Hey, which category is COc1ccc(-c2c(Cl)nc(NCCc3cccc(Cl)c3)c(=O)n2CC(=O)NCCc2ccncc2)cc1 [Example E-0103] in, do you know?
OUTPUT: bin 2

INPUT: Hey, which category is O=C(Cn1c(-c2cccc(Cl)c2)c(Cl)nc(NCCc2cccc(Cl)c2)c1=O)NCCc1cccnc1 [Example E-0080] in, do you know?
OUTPUT: bin 1

INPUT: Hey, which category is COc1ccc(-c2c(Cl)nc(NCc3ccccc3)c(=O)n2CC(=O)NCCc2ccncc2)cc1 [Example E-0033] in, do you know?
OUTPUT: bin 1
